Entry source: patent US5859029A

- measured-on: NK1 receptors of IM9 human lymphoblasts (Homo sapiens)
- Construct: NK1 receptors of IM9 human lymphoblasts; endogenous in cells
- Sequence (P25103 whole entry): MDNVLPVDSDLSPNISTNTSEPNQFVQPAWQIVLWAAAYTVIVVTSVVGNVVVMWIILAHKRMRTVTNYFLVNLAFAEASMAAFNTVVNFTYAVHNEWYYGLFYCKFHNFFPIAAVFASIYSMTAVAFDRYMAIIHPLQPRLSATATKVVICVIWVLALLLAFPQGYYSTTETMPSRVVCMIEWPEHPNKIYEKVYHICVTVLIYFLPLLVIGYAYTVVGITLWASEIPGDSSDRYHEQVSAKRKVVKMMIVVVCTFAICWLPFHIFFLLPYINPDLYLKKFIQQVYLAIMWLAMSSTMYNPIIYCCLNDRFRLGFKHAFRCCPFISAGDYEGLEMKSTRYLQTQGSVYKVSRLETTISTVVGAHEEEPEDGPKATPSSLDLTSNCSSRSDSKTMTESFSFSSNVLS
- procedure-summary: Binding of [^125 I]BH-SP (substance P) to the NK1 receptors of human lymphoblasts
- measurement-parameters: read-out: inhibition constant Ki (binding of substance P to the human lymphoblast NK1 receptor)
pKi: −log10 of the molar value. Counter-ions that a name gives are not always drawn.

{"compound": "O=C1CC(CCN2CCC(O)(c3ccccc3)CC2)(c2ccc(Cl)c(Cl)c2)CCN1Cc1ccccc1 (stereo not shown) [hydrochloride]", "pKi": "~6.00"}
{"compound": "O=C1CC(CCN2CCC(O)(c3ccccc3)CC2)(c2ccc(Cl)c(Cl)c2)CN1Cc1cc(C(F)(F)F)cc(C(F)(F)F)c1 (stereo not shown) [Example 10, hydrochloride]", "pKi": "~10.00"}
{"compound": "C[N+]1(CCC2(c3ccc(Cl)c(Cl)c3)CCC(=O)N(Cc3cc(C(F)(F)F)cc(C(F)(F)F)c3)C2)CCC(c2ccccc2)CC1 (stereo not shown) [Example 7]", "pKi": "~10.00"}
{"compound": "O=C1CCC(CCN2CCC(Cc3ccccc3)CC2)(c2ccc(Cl)c(Cl)c2)CN1Cc1ccccc1 (stereo not shown) [hydrochloride]", "pKi": "~6.00"}
